All values here come from ChEMBL document CHEMBL2380248.

Each entry below carries its recorded pKi.
target_or_test_system: Matrilysin (Homo sapiens)
Sequence (P09237 whole entry): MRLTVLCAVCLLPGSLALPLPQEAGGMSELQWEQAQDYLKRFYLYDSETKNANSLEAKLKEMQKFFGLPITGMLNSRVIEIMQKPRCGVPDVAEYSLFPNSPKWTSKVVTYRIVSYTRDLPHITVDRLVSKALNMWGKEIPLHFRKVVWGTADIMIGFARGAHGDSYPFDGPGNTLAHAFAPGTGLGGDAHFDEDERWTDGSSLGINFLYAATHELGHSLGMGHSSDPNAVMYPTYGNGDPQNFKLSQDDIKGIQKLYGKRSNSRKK
measurement_description: Inhibition of MMP-7 (unknown origin) using Mca-PLGLDpa-AR-NH2 as substrate preincubated for 30 mins by fluorescence assay
particulars: read-out: Ki(app)
Recall that pKi is obtained by taking minus log10 of the concentration measured in molar.

>  <molecule>
CNC(=O)[C@H](Cc1ccccc1)NC(=O)[C@@H](CC(C)C)S[C@H]1CN(C(=O)CN2C(=O)c3ccccc3C2=O)C[C@H]1S (mixture of isomers)

>  <target_or_test_system>
Matrilysin (Homo sapiens)

>  <pKi>
7.30

$$$$

Lab note: next molecule to report on.
Sure, the documented pKi for CNC(=O)[C@H](Cc1ccccc1)NC(=O)[C@@H](CC(C)C)S[C@H]1CNC[C@H]1S (mixture of isomers) is 6.64
